assay: APR_HepG2_StressKinase_1hr: Apredica 1-hour HepG2 Assay for Stress Kinase (AID 2282906); conditions: HepG2 stress kinase (phospho-c-Jun) imaging, actives raise or lower the signal
Active and inactive are the calls of the source. How the source made its calls: active means hit-call score of the fitted dose curve at least 0.9, where 1 is the maximum; inactive means score below 0.9.
Outcome codes: active, inactive

1. COC(=O)N(C(=O)N1CO[C@@]2(C(=O)OC)Cc3cc(Cl)ccc3C2=N1)c1ccc(OC(F)(F)F)cc1
inactive
2. O=C1C2CC=CCC2C(=O)N1SC(Cl)(Cl)Cl (stereo not drawn)
active
3. CC(C)NC(=O)N1CC(=O)N(c2cc(Cl)cc(Cl)c2)C1=O
inactive
4. Nc1c(Cl)c(F)nc(OCC(=O)O)c1Cl
inactive
5. CS(=O)(=O)c1cc(C(F)(F)F)ccc1C(=O)c1cnoc1C1CC1
inactive
6. CCN(CC)C(=O)C(C)Oc1cccc2ccccc12 (stereo not drawn)
inactive
7. COCC(C)N(C(=O)CCl)c1c(C)csc1C (stereo not drawn)
inactive
8. C=C(C)CN(CC)c1c([N+](=O)[O-])cc(C(F)(F)F)cc1[N+](=O)[O-]
inactive
9. Cc1cc(C)nc(Nc2ccccc2)n1
inactive
10. CC(C)C1(C)N=C(c2ncccc2C(=O)O)NC1=O (stereo not drawn)
inactive
11. CC(C)=CC1C(C(=O)OCc2coc(Cc3ccccc3)c2)C1(C)C (stereo not drawn)
inactive
12. CC1(C)CON(Cc2ccccc2Cl)C1=O
inactive
13. CCOc1nc(F)cc2nc(S(=O)(=O)Nc3c(Cl)cccc3Cl)nn12
inactive
14. CCCN(CC)CC1COC2(CCC(C(C)(C)C)CC2)O1 (stereo not drawn)
inactive
15. CN/C(=N\[N+](=O)[O-])NCc1cnc(Cl)s1
inactive
16. CCNC(=O)NC(=O)C(C#N)=NOC
inactive
17. Nc1c(Cl)c(Cl)nc(C(=O)O)c1Cl
inactive
18. COC(=O)c1c(C(F)F)nc(C(F)(F)F)c(C2=NCCS2)c1CC(C)C
inactive
19. CCOc1cc(C(C)(C)C)ccc1C1COC(c2c(F)cccc2F)=N1 (stereo not drawn)
inactive
20. Cn1c(-c2ccccc2)cc(-c2ccccc2)[n+]1C
inactive
21. Clc1nc(Cl)nc(Nc2ccccc2Cl)n1
inactive
22. CC(C)N1C(=O)c2ccccc2NS1(=O)=O
inactive
23. CCCCC(C#N)(Cn1cncn1)c1ccc(Cl)cc1 (stereo not drawn)
inactive
24. CCOP(=S)(OCC)Oc1nc(Cl)n(C(C)C)n1
inactive
25. CCOP(=O)(OCC)Oc1nc(Cl)c(Cl)cc1Cl
inactive
26. CCNP(=S)(OC)O/C(C)=C/C(=O)OC(C)C (stereo not drawn)
inactive
27. CCC(C)n1c(=O)[nH]c(C)c(Br)c1=O (stereo not drawn)
inactive
28. COCc1cnc(C2=NC(C)(C(C)C)C(=O)N2)c(C(=O)O)c1 (stereo not drawn)
inactive
29. Cc1nc(N(C)C)nc(OC(=O)N(C)C)c1C
inactive
30. C=CCOC(=O)C(C)(C)OC(=O)c1cc(-n2c(=O)cc(C(F)(F)F)n(C)c2=O)ccc1Cl
inactive
31. COP(=S)(OC)SCn1nnc2ccccc2c1=O
inactive
32. CC1(C)C(C(=O)OC(C#N)c2cccc(Oc3ccccc3)c2)C1(C)C (stereo not drawn)
inactive
33. O=c1n(Cl)c(=O)n(Cl)c(=O)n1Cl
inactive
34. N#CN=C1SCCN1Cc1ccc(Cl)nc1
inactive
35. CSC(=O)c1c(C(F)F)nc(C(F)(F)F)c(C(=O)SC)c1CC(C)C
inactive
36. Cc1ccc(N=CN(C)C=Nc2ccc(C)cc2C)c(C)c1
active
37. N#Cc1c[nH]cc1-c1cccc2c1OC(F)(F)O2
inactive
38. CCCCC(O)(Cn1cncn1)c1ccc(Cl)cc1Cl (stereo not drawn)
inactive

* * *

Collected AC50 values appear next to each entry.
system: rat CYP2C6, gene 293989; assay: NVS_ADME_rCYP2C6: NovaScreen (NVS) CYP450-related Enzyme Activity (ADME) Assay for rat CYP2C6 (AID 2283120)
The source made the active and inactive calls. Rule for the calls: active = hit-call score of the fitted dose curve at least 0.9, where 1 is the maximum; inconclusive = response in the unintended direction; inactive = score below 0.9.
measurementType: AC50

1. CC(C)NC(=O)N1CC(=O)N(c2cc(Cl)cc(Cl)c2)C1=O
2380 nM (active)
2. COC(=O)c1c(C(F)F)nc(C(F)(F)F)c(C2=NCCS2)c1CC(C)C
3590 nM (active)
3. CCOP(=S)(OCC)Oc1nc(Cl)n(C(C)C)n1
837 nM (active)
4. CCCCC(O)(Cn1cncn1)c1ccc(Cl)cc1Cl (configuration not stated)
3590 nM (active)
5. CCN(CC)c1nc(C)cc(OP(=S)(OC)OC)n1
723 nM (active)
6. COP(=S)(OC)SCn1nnc2ccccc2c1=O
634 nM (active)
7. CCNP(=S)(OC)O/C(C)=C/C(=O)OC(C)C (configuration not stated)
151 nM (active)

* * *

read-out: Forkhead box O3 (FOXO3), FOXO3 (gene 2309); assay: LTEA_HepaRG_FOXO3: Life Technologies and Expression Analysis (LTEA) Assay for Forkhead box O3 (FOXO3) using HepaRG (AID 2283459); conditions: mRNA level, 48 h; actives raise or lower the signal
The source made the active and inactive calls. How the source made its calls: active means hit-call score of the fitted dose curve at least 0.9, where 1 is the maximum; inactive means score below 0.9.
Outcome codes: t for active, f for inactive

1) CCOc1cc(C(C)(C)C)ccc1C1COC(c2c(F)cccc2F)=N1 (stereo not drawn)
f
2) COC(=O)c1c(C(F)F)nc(C(F)(F)F)c(C2=NCCS2)c1CC(C)C
f
3) CS(=O)(=O)c1cc(C(F)(F)F)ccc1C(=O)c1cnoc1C1CC1
f
4) COCc1cnc(C2=NC(C)(C(C)C)C(=O)N2)c(C(=O)O)c1 (stereo not drawn)
f
5) CCC(C)n1c(=O)[nH]c(C)c(Br)c1=O (stereo not drawn)
t
6) Cc1ccc(N=CN(C)C=Nc2ccc(C)cc2C)c(C)c1
f
7) CC1(C)C(C(=O)OC(C#N)c2cccc(Oc3ccccc3)c2)C1(C)C (stereo not drawn)
f
8) CCCN(CC)CC1COC2(CCC(C(C)(C)C)CC2)O1 (stereo not drawn)
f
9) N#Cc1c[nH]cc1-c1cccc2c1OC(F)(F)O2
t
10) CO/N=C(/C1=NOCCO1)c1ccccc1Oc1ncnc(Oc2ccccc2Cl)c1F
f
11) CCOc1nc(C(Cl)(Cl)Cl)ns1
t
12) CC1(C)CON(Cc2ccccc2Cl)C1=O
f
13) O=c1n(Cl)c(=O)n(Cl)c(=O)n1Cl
f
14) CC(C)Oc1cccc(NC(=O)c2ccccc2C(F)(F)F)c1
f
15) CN=C=S
f
16) N#CN=C1SCCN1Cc1ccc(Cl)nc1
f
17) CC(C)N1C(=O)N(c2ccccc2)CSC1=NC(C)(C)C
f
18) CNC(=O)Oc1cccc2ccccc12
f
19) CCNP(=S)(OC)O/C(C)=C/C(=O)OC(C)C (stereo not drawn)
f
20) COP(=S)(OC)Oc1ccc([N+](=O)[O-])c(C)c1
f
21) COC(=O)NS(=O)(=O)c1ccc(N)cc1
f
22) CS(=O)(=O)c1ccc(C(=O)C2C(=O)CCCC2=O)c([N+](=O)[O-])c1
f
23) COc1ccc(-c2ccccc2)cc1NNC(=O)OC(C)C
f
24) CC(C)NC(=O)N1CC(=O)N(c2cc(Cl)cc(Cl)c2)C1=O
t
25) CCN(CC)C(=O)C(C)Oc1cccc2ccccc12 (stereo not drawn)
f
26) CCCC(=NOCC)C1=C(O)CC(CC(C)SCC)CC1=O (stereo not drawn)
f
27) N#Cc1c(Cl)cccc1Cl
f
28) O=C1C2CC=CCC2C(=O)N1SC(Cl)(Cl)Cl (stereo not drawn)
f

* * *

read-out: E-selectin (Homo sapiens) (UniProt P16581); experiment: BSK_SAg_Eselectin: BioMAP Diversity Plus: SAg Assay for Eselectin Biomarker Activity (AID 2283091); conditions: primary human HUVEC with PBMC; actives raise or lower the signal
Sequence (P16581 whole entry, looked up): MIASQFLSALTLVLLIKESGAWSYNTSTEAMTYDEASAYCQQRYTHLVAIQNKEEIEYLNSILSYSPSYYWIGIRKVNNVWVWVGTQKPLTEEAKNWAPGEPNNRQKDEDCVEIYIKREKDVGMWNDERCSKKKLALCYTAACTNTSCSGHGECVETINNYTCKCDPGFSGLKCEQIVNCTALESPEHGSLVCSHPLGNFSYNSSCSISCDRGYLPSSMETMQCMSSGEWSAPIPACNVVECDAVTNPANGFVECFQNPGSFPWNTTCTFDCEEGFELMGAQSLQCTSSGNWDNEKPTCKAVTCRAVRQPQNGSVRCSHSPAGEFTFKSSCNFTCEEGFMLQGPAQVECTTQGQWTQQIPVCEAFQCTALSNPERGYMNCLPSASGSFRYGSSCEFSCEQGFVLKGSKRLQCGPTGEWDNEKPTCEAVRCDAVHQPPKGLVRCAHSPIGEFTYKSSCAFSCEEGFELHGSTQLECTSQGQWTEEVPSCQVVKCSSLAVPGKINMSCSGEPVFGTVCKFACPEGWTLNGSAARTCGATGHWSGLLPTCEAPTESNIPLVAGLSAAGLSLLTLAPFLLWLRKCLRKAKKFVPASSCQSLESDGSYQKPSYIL
Active and inactive are the calls of the source. The calls were made as follows: active = hit-call score of the fitted dose curve at least 0.9, where 1 is the maximum; inactive = score below 0.9.
Outcome codes: active, inactive

1) COC(=O)NC(=S)Nc1ccccc1NC(=S)NC(=O)OC
active
2) Cc1nc(N(C)C)nc(OC(=O)N(C)C)c1C
inactive
3) CC(C)=CC1C(C(=O)OCc2coc(Cc3ccccc3)c2)C1(C)C (configuration not stated)
active
4) CCOP(=S)(OCC)Oc1nc(Cl)n(C(C)C)n1
inactive
5) CCN(CC)C(=O)C(C)Oc1cccc2ccccc12 (configuration not stated)
active
6) CCCN(CC)CC1COC2(CCC(C(C)(C)C)CC2)O1 (configuration not stated)
active
7) COP(=S)(OC)Oc1ccc([N+](=O)[O-])c(C)c1
active
8) CSC(=O)c1c(C(F)F)nc(C(F)(F)F)c(C(=O)SC)c1CC(C)C
active
9) CC1(C)CON(Cc2ccccc2Cl)C1=O
inactive
10) Cc1cnc(C2=NC(C)(C(C)C)C(=O)N2)c(C(=O)O)c1 (configuration not stated)
inactive
11) CS(=O)(=O)c1ccc(C(=O)C2C(=O)CCCC2=O)c([N+](=O)[O-])c1
inactive
12) O=C(O)c1c(Cl)ccc2cc(Cl)cnc12
inactive
